Test: Particle size distribution of BisEDT samples vs processing conditions
Type: physicochemical
Settings: crystalline BisEDT samples
measurement_kind: D(50) (μm)
Give bare numbers, in μm.

Example cases with answers are listed next.
| compound | measurement_kind | unit_tag | numeric_result |
| --- | --- | --- | --- |
| C1C[S][Bi]([S]CC[S][Bi]2[S]CC[S]2)[S]1 [Sample 15] | D(50) | μm | 0.72 |
| C1C[S][Bi]([S]CC[S][Bi]2[S]CC[S]2)[S]1 [Sample 12] | D(50) | μm | 1.2 |
| C1C[S][Bi]([S]CC[S][Bi]2[S]CC[S]2)[S]1 [Sample 10] | D(50) | μm | 0.88 |
| C1C[S][Bi]([S]CC[S][Bi]2[S]CC[S]2)[S]1 [Sample 5] | D(50) | μm | 0.72 |
| C1C[S][Bi]([S]CC[S][Bi]2[S]CC[S]2)[S]1 [Sample 14] | D(50) | μm | 1.0 |
| C1C[S][Bi]([S]CC[S][Bi]2[S]CC[S]2)[S]1 [Sample 7] | D(50) | μm | 1.3 |
| C1C[S][Bi]([S]CC[S][Bi]2[S]CC[S]2)[S]1 [Sample 2] | D(50) | μm | 1.7 |
| C1C[S][Bi]([S]CC[S][Bi]2[S]CC[S]2)[S]1 [Sample 11] | D(50) | μm | 1.2 |
| C1C[S][Bi]([S]CC[S][Bi]2[S]CC[S]2)[S]1 [Sample 4] | D(50) | μm | 1.48 |
| C1C[S][Bi]([S]CC[S][Bi]2[S]CC[S]2)[S]1 [Sample 9] | D(50) | μm | 1.0 |

Return reported D(50) values for all items listed beneath this line.
1. C1C[S][Bi]([S]CC[S][Bi]2[S]CC[S]2)[S]1 [Sample 1]
2. C1C[S][Bi]([S]CC[S][Bi]2[S]CC[S]2)[S]1 [Sample 6]
3. C1C[S][Bi]([S]CC[S][Bi]2[S]CC[S]2)[S]1 [Sample 3]
4. C1C[S][Bi]([S]CC[S][Bi]2[S]CC[S]2)[S]1 [Sample 13]

[2.4, 0.87, 1.9, 0.98]

Quick check: D(50) of C1C[S][Bi]([S]CC[S][Bi]2[S]CC[S]2)[S]1 [Sample 8] ?
1.0
